- TARGET_DESC: LRX5^ΔE-FLAG (Arabidopsis thaliana) (UniProt Q9SN46)
- PROCEDURE_DETAILS: BLI
METRIC: pKd
Please note pKd is a logarithmic value: minus log10 of concentration in mol/L. Answer with that number alone.

-- ask Answer with the recorded pKd for the binder listed here: ATTKYISYQSLKRNSVPCSRRGASYYNCQNGAQANPYSRGCSKIARCRS [RALF1, in vitro synthesized peptide]
-- reply 8.30
